# System: Human immunodeficiency virus 1
# procedureText: microbe, parasite or virus in culture
# conditionNotes: Human immunodeficiency virus 1, IIIB, MT4, 120 h
# Description: Antiviral activity against wild type HIV-1 IIIB infected in human MT4 cells assessed as protection against virus-induced cytopathic effect incubated for 5 days by MTT assay
measuredQuantity: EC50 (nM)
Return type: number; implicit unit nM.

Here's what some known entries look like.
compound: Cc1cc(/C=C/C#N)cc(C)c1Oc1ccnc(Nc2ccc3occc3c2)n1
EC50 (nM): 7
//
compound: Cc1cc(/C=C/C#N)cc(C)c1Oc1ccnc(Nc2ccc3c(c2)NC(=O)C3)n1
EC50 (nM): 2

## Task Give reported EC50 value for "Cc1cc(/C=C/C#N)cc(C)c1Oc1ccnc(Nc2ccc3nncn3c2)n1"
## Result 2

## Task Give reported EC50 value for "Cc1ccnc2c1NC(=O)c1cccnc1N2C1CC1"
## Result 130

## Task Give reported EC50 value for "Cc1cc(/C=C/C#N)cc(C)c1Oc1ccnc(Nc2ccc3c(cnn3C)c2)n1"
## Result 3

###

# procedureText: in vitro
# conditionNotes: human, MT4 cells
# Description: Selectivity index, ratio of CC50 for human MT4 cells to EC50 for HIV-1 RES056 harboring RT K103N/Y181C mutant infected in human MT4 cells
measuredQuantity: selectivity ratio

Here's what some known entries look like.
compound: Cc1cc(/C=C/C#N)cc(C)c1Oc1ccnc(Nc2ccc3oncc3c2)n1
selectivity ratio: 4

compound: Cc1cc(/C=C/C#N)cc(C)c1Oc1ccnc(Nc2ccc3c(c2)C(=O)N(C)C3=O)n1
selectivity ratio: > 63

compound: Cc1cn([C@H]2C[C@H](N=[N+]=[N-])[C@@H](CO)O2)c(=O)[nH]c1=O
selectivity ratio: > 215

## Task Give reported selectivity ratio value for "Cc1cc(/C=C/C#N)cc(C)c1Oc1ccnc(Nc2ccc3c(c2)NC(=O)C3)n1"
## Result > 1

###

# measurementTarget: Human immunodeficiency virus type 1 reverse transcriptase (Human immunodeficiency virus 1)
measuredQuantity: pIC50
The quantity pIC50 is defined as the negative base-10 logarithm of the molar concentration.

compound: Cc1cc(/C=C/C#N)cc(C)c1Oc1ccnc(Nc2ccc3c(c2)CN(C)C3=O)n1
pIC50: 6.20
//
compound: COP(=O)(OC)N1CCc2ccc(Nc3nccc(Oc4c(C)cc(/C=C/C#N)cc4C)n3)cc2C1
pIC50: 6.20
//
compound: Cc1nc2cc(Nc3nccc(Oc4c(C)cc(/C=C/C#N)cc4C)n3)ccc2o1
pIC50: 7.28
//
compound: Cc1cc(/C=C/C#N)cc(C)c1Oc1ccnc(Nc2ccc3c(c2)CCN(CCS(C)(=O)=O)C3)n1
pIC50: 6.77
//
compound: Cc1cc(/C=C/C#N)cc(C)c1Oc1ccnc(Nc2ccc3c(c2)OCCO3)n1
pIC50: 7.30

## Task Would you please give the reported pIC50 of "Cc1cc(/C=C/C#N)cc(C)c1Oc1ccnc(Nc2ccc3c(c2)CN(S(N)(=O)=O)CC3)n1" with Human immunodeficiency virus type 1 reverse transcriptase (Human immunodeficiency virus 1)?
## Result 6.96

## Task Would you please give the reported pIC50 of "Cc1cc(/C=C/C#N)cc(C)c1Oc1ccnc(Nc2ccc3nc(C#N)sc3c2)n1" with Human immunodeficiency virus type 1 reverse transcriptase (Human immunodeficiency virus 1)?
## Result 5.95

###

In this section, each of the compounds is paired with its reported pEC50.
# System: Human immunodeficiency virus 1
# procedureText: microbe, parasite or virus in culture
# conditionNotes: Human immunodeficiency virus 1, IIIB, MT4, 120 h
The quantity pEC50 is defined as the negative base-10 logarithm of the molar concentration.

## Task Give reported pEC50 value for "Cc1cc(/C=C/C#N)cc(C)c1Oc1ccnc(Nc2ccc3oncc3c2)n1"
## Result 8.15

## Task Give reported pEC50 value for "Cc1nc2cc(Nc3nccc(Oc4c(C)cc(/C=C/C#N)cc4C)n3)ccc2s1"
## Result 7.92

## Task Give reported pEC50 value for "Cc1cc(/C=C/C#N)cc(C)c1Oc1ccnc(Nc2ccc3ncsc3c2)n1"
## Result 8.05

## Task Give reported pEC50 value for "Cc1cc(/C=C/C#N)cc(C)c1Oc1ccnc(Nc2ccc3c(C)cc(=O)oc3c2)n1"
## Result 7.74

###

In this section, each of the compounds is paired with its reported pEC50.
# Tested on: Human immunodeficiency virus 1
# procedureText: Antiviral activity against NNRTI-resistant HIV-1 harboring RT E138K mutant infected in human MT4 cells assessed as protection against virus-induced cytopathic effect incubated for 5 days by MTT assay
# Format: functional, organism-based
# conditionNotes: Human immunodeficiency virus 1, MT4, 120 h
The quantity pEC50 is defined as the negative base-10 logarithm of the molar concentration.

Here's what some known entries look like.
compound: Cc1cc(/C=C/C#N)cc(C)c1Oc1ccnc(Nc2ccc3nccn3c2)n1
testValue: 7.24

compound: Cc1cn([C@H]2C[C@H](N=[N+]=[N-])[C@@H](CO)O2)c(=O)[nH]c1=O
testValue: 7.33

--- query ---
## Task Give reported pEC50 value for "Cc1cc(/C=C/C#N)cc(C)c1Oc1ccnc(Nc2ccc3cnsc3c2)n1"
## Result 7.85

###

# Tested on: Human immunodeficiency virus 1
# Assay type: functional, organism-based
# conditionNotes: Human immunodeficiency virus 1, MT4, 120 h
In this section, each of the compounds is paired with its reported pEC50.
The quantity pEC50 is defined as the negative base-10 logarithm of the molar concentration.

Here's what some known entries look like.
compound: Cn1c(Cn2ccc(C(F)(F)F)c(Oc3cc(Cl)cc(C#N)c3)c2=O)n[nH]c1=O
measurementTarget: Human immunodeficiency virus 1
pEC50: 4.66
--
compound: Cc1cc(C#N)cc(C)c1Oc1nc(Nc2ccc(C#N)cc2)nc(N)c1Br
measurementTarget: Human immunodeficiency virus 1
pEC50: 7.77
--
compound: Cc1cc(/C=C/C#N)cc(C)c1Oc1ccnc(Nc2ccc3nccn3c2)n1
measurementTarget: Human immunodeficiency virus 1
pEC50: 6.02
--
compound: Cc1cc(/C=C/C#N)cc(C)c1Oc1ccnc(Nc2ccc(N3CCN(S(C)(=O)=O)CC3)c(C#N)c2)n1
measurementTarget: Human immunodeficiency virus 1
pEC50: 8.00

## Task Give reported pEC50 value for "Cc1cc(/C=C/C#N)cc(C)c1Oc1ccnc(Nc2ccc3scnc3c2)n1"
## Result 5.91

## Task Give reported pEC50 value for "Cc1cc(/C=C/C#N)cc(C)c1Oc1ccnc(Nc2ccc3c(c2)COC3)n1"
## Result 6.15

## Task Give reported pEC50 value for "Cc1cc(/C=C/C#N)cc(C)c1Oc1ccnc(Nc2ccc3cnsc3c2)n1"
## Result 6.30

###

# procedureText: in vitro
# conditionNotes: human, MT4 cells
# Description: Selectivity index, ratio of CC50 for human MT4 cells to EC50 for wild type HIV-1 IIIB infected in human MT4 cells
measuredQuantity: selectivity ratio

compound: Cc1cc(/C=C/C#N)cc(C)c1Oc1ccnc(Nc2ccc3c(c2)CCN(S(C)(=O)=O)C3)n1
selectivity ratio: 970

## Task Give reported selectivity ratio value for "Cc1cc(/C=C/C#N)cc(C)c1Oc1ccnc(Nc2ccc3c(c2)CCN(CCS(C)(=O)=O)C3)n1"
## Result 256

## Task Give reported selectivity ratio value for "COP(=O)(OC)N1CCc2ccc(Nc3nccc(Oc4c(C)cc(/C=C/C#N)cc4C)n3)cc2C1"
## Result 58

## Task Give reported selectivity ratio value for "Cc1cc(/C=C/C#N)cc(C)c1Oc1ccnc(Nc2ccc3c(c2)CCN(C(=O)CS(C)(=O)=O)C3)n1"
## Result 642

###

# System: Human immunodeficiency virus 1
# procedureText: Antiviral activity against NNRTI-resistant HIV-1 harboring RT E138K mutant infected in human MT4 cells assessed as protection against virus-induced cytopathic effect incubated for 5 days by MTT assay
# Type: functional, organism-based
# conditionNotes: Human immunodeficiency virus 1, MT4, 120 h
measuredQuantity: pEC50
The quantity pEC50 is defined as the negative base-10 logarithm of the molar concentration.

Here's what some known entries look like.
compound: Cc1cc(/C=C/C#N)cc(C)c1Oc1ccnc(Nc2ccc(N3CCN(S(C)(=O)=O)CC3)c(C#N)c2)n1
measurementTarget: Human immunodeficiency virus 1
pEC50: 8.22
//
compound: Cc1cc(/C=C/C#N)cc(C)c1Oc1ccnc(Nc2ccc3c(c2)NC(=O)C3)n1
measurementTarget: Human immunodeficiency virus 1
pEC50: 7.34
//
compound: Cc1cc(/C=C/C#N)cc(C)c1Oc1ccnc(Nc2ccc3c(c2)C(=O)NCC3)n1
measurementTarget: Human immunodeficiency virus 1
pEC50: 7.68
//
compound: O=C1Nc2ccc(Cl)cc2[C@@](C#CC2CC2)(C(F)(F)F)O1
measurementTarget: Human immunodeficiency virus 1
pEC50: 8.05
//
compound: Cc1cc(/C=C/C#N)cc(C)c1Oc1ccnc(Nc2ccc3c(cnn3C)c2)n1
measurementTarget: Human immunodeficiency virus 1
pEC50: 7.27
//
compound: Cc1cc(/C=C/C#N)cc(C)c1Oc1ccnc(Nc2ccc3scnc3c2)n1
measurementTarget: Human immunodeficiency virus 1
pEC50: 7.77
//
compound: Cc1cc(/C=C/C#N)cc(C)c1Oc1ccnc(Nc2ccc3c(c2)COC3)n1
measurementTarget: Human immunodeficiency virus 1
pEC50: 7.41
//
compound: Cc1cc(/C=C/C#N)cc(C)c1Oc1ccnc(Nc2ccc3nncn3c2)n1
measurementTarget: Human immunodeficiency virus 1
pEC50: 7.96

--- query ---
## Task Would you please give the reported pEC50 of "Cn1c(Cn2ccc(C(F)(F)F)c(Oc3cc(Cl)cc(C#N)c3)c2=O)n[nH]c1=O" with Human immunodeficiency virus 1?
## Result 7.72
